Recorded values, source ChEMBL document CHEMBL4052614.

# Tested on: PC-3
# test.description: Cytotoxicity against human PC3 cells after 48 hrs by MTT assay
# Type: functional, cell-based
# experimental.context: PC-3, 48 h
For each of the compounds below, state its IC50.
Express it in nM; write the number only.

Q. Recall and state the measured IC50 for COc1c(CC=C(C)C)cc(C(=O)/C=C/c2cccnc2)c(O)c1CC=C(C)C .
A. 2920

Q. Recall and state the measured IC50 for COc1cccc2c1C(=O)c1c(O)c3c(c(O)c1C2=O)C[C@@](O)(C(=O)CO)C[C@@H]3O[C@H]1C[C@H](N)[C@H](O)[C@H](C)O1 [DOXORUBICIN] .
A. 2630
